Kd by entry:
# Tested System: T1, LukD
# T1 chain: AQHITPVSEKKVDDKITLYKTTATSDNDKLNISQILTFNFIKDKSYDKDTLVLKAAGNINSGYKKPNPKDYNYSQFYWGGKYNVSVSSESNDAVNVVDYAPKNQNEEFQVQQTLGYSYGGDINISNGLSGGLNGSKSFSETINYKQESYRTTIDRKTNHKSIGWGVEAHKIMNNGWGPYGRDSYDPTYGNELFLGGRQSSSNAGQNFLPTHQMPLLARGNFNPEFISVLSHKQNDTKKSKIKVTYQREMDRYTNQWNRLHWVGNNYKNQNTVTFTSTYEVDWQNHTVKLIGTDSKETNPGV
# Test Name: MSD solution equilibrium; Fab

Binder	Value Unit	Kd
AB-28-11 (antibody, V domains shown) VH: QVQLQESGPGLVKPSETLSLTCAVSGYSISSGMGWDWIRQPPGKGLEWIGSIDQRGSTYYNPSLEGRVTISVDTSKNQFSLKLSSVTAADTAVYYCARDAGHGVDMDVWGKGTTVTVSS VL: DIQMTQSPSSVSASVGDRVTITCRASQGISRWLAWYQQKPGKAPKLLIYAASSLQSGVPSRFSGSGSGTDFTLTISSLQPEDFATYYCQQGYVFPLTFGGGTKVEIK	nM	1.2
AB-28-6 (antibody, V domains shown) VH: QVQLQESGPGLVRPSETLSLTCAVSGYSISSGMGWGWIRQPPGKGLEWIGSIDQRGSTYYNPSLKSRVTISVDTSKNQFSLKLSSVTAADTAVYYCARDAGHAVDMDVWGKGTTVTVSS VL: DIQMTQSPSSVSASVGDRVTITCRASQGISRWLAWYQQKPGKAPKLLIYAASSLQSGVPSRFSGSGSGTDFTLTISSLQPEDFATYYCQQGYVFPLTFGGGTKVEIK	nM	0.4
